# ASSAY PROTOCOL: chemical genetic growth profiling, strain panel (AID 1159580);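 note: tested at 20 µM; growth read once vehicle control cultures reached saturation at 30 °C; 1 = growth at the plate median or of vehicle wells; lower values mean less growth of the strain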
# EXPERIMENTAL CONTEXT: S. cerevisiae deletion strains, growth OD, locus YML094W, strain GIM5
In all, about 5,500 compounds went through this assay and about 2,000 (36%) were called active. Another 18% or so got no clear call; they are omitted. Cut-off read from the data, not from the text of the source: active = normalized growth mostly below about 0.91 (no sharp cut-off); inconclusive = no clear call, values can overlap the other calls; inactive = mostly above about 0.92. The list shows a part of the results.
Possible outcomes: 1 (yes) = active, 0 (no) = inactive

                                    molecule  group_label
 0  N#CC(NCc1ccccc1)c1ccc(Cl)c(Cl)c1 (stereo not given)       0 (no)
 1  O=[N+]([O-])c1cnc(Sc2n[nH]c(-c3cccs3)n2)s1      1 (yes)
 2          S=C(NCc1ccccc1)Nc1ccc(Cl)c(Cl)c1      1 (yes)
 3                        Cc1noc(C)c1NC(N)=O       0 (no)
 4                   N#CC(C#N)=CNc1cccc(N)n1       0 (no)
 5       CCCc1nc(-c2ccccn2)[nH]c(=O)c1CC1CC1      1 (yes)
 6                        NC(=S)COc1ccccc1Cl       0 (no)
 7  CC(C)(C)c1nccc(-c2nn(-c3ccc(F)cc3)ccc2=O)n1       0 (no)
 8                S=C(NCc1cccnc1)Nc1ccccc1Cl       0 (no)
 9        O=C(O)c1ccc(N=Cc2ccc3c(c2)OCO3)cc1       0 (no)
10  C=C1SC(=Nc2cccc(OC)c2)N(C(=O)C(c2ccccc2)C2CCCC2)C1(C)C (stereo not given)       0 (no)
11  Cc1cc(C)cc(NC(=S)N2CCN(c3ncc(C(F)(F)F)cc3Cl)CC2)c1       0 (no)
12  CC(C)(C)OC(=O)C(C)(C)S(=O)(=O)c1ccc(Cl)cc1       0 (no)
13                         COc1cc(OC)nc(N)n1       0 (no)
14    O=C1ON=C(CSc2ccccc2)/C1=C/c1ccc(Cl)cc1      1 (yes)
15  O=[N+]([O-])c1ccc(S(=O)(=O)c2ccc(Cl)cc2)cc1O       0 (no)
16      O=C(O/N=C\c1ccc2c(c1)OCO2)c1ccccc1Br      1 (yes)
17  Cc1noc(C)c1-c1nc(-c2cc(C(F)(F)F)cc(C(F)(F)F)c2)no1       0 (no)
18  FC(F)(F)c1cnc(N2CCN(C(=S)Nc3ccccc3)CC2)c(Cl)c1       0 (no)
19  CCc1cc2c(cc1C(=O)CC1(O)C(=O)Nc3ccc(Br)cc31)C(C)(C)CCC2(C)C (stereo not given)       0 (no)
20            O=C(Nc1ccc(Cl)c(Cl)c1)c1ccccc1      1 (yes)
21               CS/C(N)=N\N=C/c1c(F)cccc1Cl       0 (no)
22              COc1cccc(-c2nc(C#N)c(N)o2)c1       0 (no)
23  COc1ccccc1C1OC(=O)CC1C(=O)O (stereo not given)       0 (no)
24           O=S(=O)(CCN1CCOCC1)c1ccc(Cl)cc1       0 (no)
